# study target: human β3-AR (Homo sapiens, UniProt P13945)
# Construct: expressed in transfected cells; host or cells: CHO (Chinese hamster ovary) cells, stably transfected
# Sequence (P13945 whole entry): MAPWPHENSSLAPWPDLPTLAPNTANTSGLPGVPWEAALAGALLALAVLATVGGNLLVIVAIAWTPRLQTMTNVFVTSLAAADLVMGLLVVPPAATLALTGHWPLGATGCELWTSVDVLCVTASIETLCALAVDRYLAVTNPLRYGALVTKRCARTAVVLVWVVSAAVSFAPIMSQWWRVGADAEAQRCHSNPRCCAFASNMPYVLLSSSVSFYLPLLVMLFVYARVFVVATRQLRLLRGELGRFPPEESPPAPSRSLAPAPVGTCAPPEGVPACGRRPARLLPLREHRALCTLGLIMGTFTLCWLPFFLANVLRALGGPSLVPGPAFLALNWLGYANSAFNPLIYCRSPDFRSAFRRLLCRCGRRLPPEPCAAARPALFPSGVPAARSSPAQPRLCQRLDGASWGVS
# test name: cAMP functional agonist assay (LANCE TR-FRET) in CHO cells expressing cloned human β3-AR
# Format: cell-based
# conditions: CHO cells stably expressing cloned human β3-adrenoceptor; cAMP release; read-out: Human β3-AR Agonism EC50
recorded endpoint: EC50 (nM)

# compound smiles, unit tag, EC50
data = [
    ("COc1c(C)n[nH]c1CN(C)C(=O)c1ccc(C[C@@H]2CC[C@H]([C@H](O)c3ccccc3)N2)cc1", "nM", 10),
]

I. CN(Cc1cncc(C(=O)O)c1)C(=O)c1ccc(C[C@@H]2CC[C@H]([C@H](O)c3ccc(Cl)nc3)N2)cc1
II. CN(Cc1nc2ccsc2c(=O)[nH]1)C(=O)c1ccc(C[C@@H]2CC[C@H]([C@H](O)c3ccccc3)N2)cc1
Input: Name the one with the greater EC50 value, either I or II as given. Refer to your chosen entry by its label in the reply.
Output: I
(I: 44 nM, II: 4 nM)

---

# study target: human β3-AR (Homo sapiens, UniProt P13945)
# Construct: expressed in transfected cells; host or cells: CHO (Chinese hamster ovary) cells, stably transfected
# test name: cAMP functional agonist assay (LANCE TR-FRET) in CHO cells expressing cloned human β3-AR
# Assay type: cell-based
# conditions: CHO cells stably expressing cloned human β3-adrenoceptor; cAMP release; read-out: Human β3-AR Agonism EC50
In this section we review reported pEC50 values for a set of molecules.
pEC50 (log units): -log10 of the concentration in mol/L.

# molecule, pEC50
data = [
    ("CC(c1cccnc1)N(C)C(=O)c1ccc(C[C@@H]2CC[C@H]([C@H](O)c3ccccc3)N2)cc1 (stereo partly drawn)", 8.52),
]

Then there is this molecule:
# pEC50 of `CN(Cc1cccnc1)C(=O)c1ccc(C[C@@H]2CC[C@H]([C@H](O)c3cncc(F)c3)N2)cc1` = 7.24

---

# study target: human β3-AR (Homo sapiens)
# Construct: expressed in transfected cells; host or cells: CHO (Chinese hamster ovary) cells, stably transfected
# test name: cAMP functional agonist assay (LANCE TR-FRET) in CHO cells expressing cloned human β3-AR
# Assay type: cell-based
# conditions: EC50 of comparative example divided by EC50 of corresponding 2-chloropyridine compound
recorded endpoint: Fold drop in potency vs. 2-chloropyridine analog (fold)

# example entries with known answers
# compound, study target, observed
measured = [
    ("CN(Cc1cncc(F)c1)C(=O)c1ccc(C[C@@H]2CC[C@H]([C@H](O)c3ccccc3)N2)cc1", "human β3-AR (Homo sapiens)", 0.9),
    ("CCC(c1cc(C)[nH]n1)N(C)C(=O)c1ccc(C[C@@H]2CC[C@H]([C@H](O)c3cccnc3)N2)cc1 (stereo partly shown)", "human β3-AR (Homo sapiens)", 1.6),
    ("COCc1cc(CN(C)C(=O)c2ccc(C[C@@H]3CC[C@H]([C@H](O)c4cccnc4)N3)cc2)n[nH]1", "human β3-AR (Homo sapiens)", 38.1),
    ("CN(Cc1cccnc1F)C(=O)c1ccc(C[C@@H]2CC[C@H]([C@H](O)c3cccnc3)N2)cc1", "human β3-AR (Homo sapiens)", 11.3),
    ("CN(Cc1cc(C(F)(F)F)[nH]n1)C(=O)c1ccc(C[C@@H]2CC[C@H]([C@H](O)c3ccccc3)N2)cc1", "human β3-AR (Homo sapiens)", 3.2),
]

a. CN(C(=O)c1ccc(C[C@@H]2CC[C@H]([C@H](O)c3ccccc3)N2)cc1)C1CCc2ncccc21 (stereo partly shown)
b. CN(Cc1ccnnc1)C(=O)c1ccc(C[C@@H]2CC[C@H]([C@H](O)c3ccccc3)N2)cc1
Input: Could you please tell me which of these two has the higher Fold drop in potency vs. 2-chloropyridine analog: a or b ? Answer with the label corresponding to your selection.
Output: b
(b: 16.1 fold, a: 5.4 fold)

a. CCOc1cc(CN(C)C(=O)c2ccc(C[C@@H]3CC[C@H]([C@H](O)c4ccccc4)N3)cc2)n[nH]1
b. CC(c1cnccn1)N(C)C(=O)c1ccc(C[C@@H]2CC[C@H]([C@H](O)c3ccccc3)N2)cc1 (stereo partly shown)
Input: Pick one: a or b . Which one has the lower reported Fold drop in potency vs. 2-chloropyridine analog? Write the label of whichever entry you select.
Output: a

---

# study target: human β3-AR (Homo sapiens, UniProt P13945)
# Construct: expressed in transfected cells; host or cells: CHO (Chinese hamster ovary) cells, stably transfected
# test name: cAMP functional agonist assay (LANCE TR-FRET) in CHO cells expressing cloned human β3-AR
# Format: cell-based
# conditions: CHO cells stably expressing cloned human β3-adrenoceptor; cAMP release; read-out: Human β3-AR Agonism EC50
pEC50: −log10 of the molar value.
recorded endpoint: pEC50

Below are worked cases with known answers.
# molecule, study target, pEC50
data = [
    ("CN(Cc1ccc(Cl)nc1)C(=O)c1ccc(C[C@@H]2CC[C@H]([C@H](O)c3ccc(F)cc3)N2)cc1", "human β3-AR (Homo sapiens, UniProt P13945)", 7.11),
    ("Cc1[nH]nc(CN(C)C(=O)c2ccc(C[C@@H]3CC[C@H]([C@H](O)c4ccc(Cl)nc4)N3)cc2)c1Cl", "human β3-AR (Homo sapiens, UniProt P13945)", 8.40),
    ("CCc1[nH]nc(CN(C)C(=O)c2ccc(C[C@@H]3CC[C@H]([C@H](O)c4ccc(Cl)nc4)N3)cc2)c1C", "human β3-AR (Homo sapiens, UniProt P13945)", 7.89),
    ("COc1c(CN(C)C(=O)c2ccc(C[C@@H]3CC[C@H]([C@H](O)c4ccc(Cl)nc4)N3)cc2)n[nH]c1C", "human β3-AR (Homo sapiens, UniProt P13945)", 8.70),
    ("CCOc1cc(CN(C)C(=O)c2ccc(C[C@@H]3CC[C@H]([C@H](O)c4ccccc4)N3)cc2)n[nH]1", "human β3-AR (Homo sapiens, UniProt P13945)", 7.59),
]

P. CCc1[nH]nc(CN(C)C(=O)c2ccc(C[C@@H]3CC[C@H]([C@H](O)c4ccccc4)N3)cc2)c1C
Q. CN(Cc1cncc(F)c1)C(=O)c1ccc(C[C@@H]2CC[C@H]([C@H](O)c3ccc(Cl)nc3)N2)cc1
Input: Return label of the item with the larger pEC50. Candidates: P , Q . Select an item and report its label.
Output: Q
(Q: 8.10, P: 7.74)

---

# study target: human β3-AR (Homo sapiens, UniProt P13945)
# Construct: expressed in transfected cells; host or cells: CHO (Chinese hamster ovary) cells, stably transfected
# test name: cAMP functional agonist assay (LANCE TR-FRET) in CHO cells expressing cloned human β3-AR
# Type: cell-based
# conditions: percent maximum activation relative to isoproterenol
recorded endpoint: Human β3-AR Agonist Activity (%)

# compound, study target, unit tag, Human β3-AR Agonist Activity (%)
records = [
    ("CN(Cc1cccnc1)C(=O)c1ccc(C[C@@H]2CC[C@H]([C@H](O)c3ccc(C(N)=O)nc3)N2)cc1", "human β3-AR (Homo sapiens, UniProt P13945)", "%", 87),
]

P. CC(C)[C@H](c1nn(C)c(=O)o1)N(C)C(=O)c1ccc(C[C@@H]2CC[C@H]([C@H](O)c3ccc(Cl)nc3)N2)cc1
Q. COCc1cc(CN(C)C(=O)c2ccc(C[C@@H]3CC[C@H]([C@H](O)c4ccc(OC(F)F)cc4)N3)cc2)n[nH]1
Input: Between P and Q , which one has the lower reported Human β3-AR Agonist Activity (%) value? Selection: enter the item's label.
Output: Q
(Q: 76%, P: 111%)

---

# study target: human β3-AR (Homo sapiens, UniProt P13945)
# Construct: expressed in transfected cells; host or cells: CHO (Chinese hamster ovary) cells, stably transfected
# test name: cAMP functional agonist assay (LANCE TR-FRET) in CHO cells expressing cloned human β3-AR
# Type: cell-based
# conditions: percent maximum activation relative to isoproterenol
recorded endpoint: Human β3-AR Agonist Activity (%)

Examples from the recorded data:
# compound, observed
records = [
    ("Cc1cc(CN(C)C(=O)c2ccc(C[C@@H]3CC[C@H]([C@H](O)c4ccc(F)nc4)N3)cc2)n[nH]1 [Example 4-Q]", 106),
    ("CN(Cc1cccnc1F)C(=O)c1ccc(C[C@@H]2CC[C@H]([C@H](O)c3cccc(F)c3)N2)cc1 [Example 26-C]", 98),
    ("CN(Cc1ccc(Cl)nc1)C(=O)c1ccc(C[C@@H]2CC[C@H]([C@H](O)c3ccc(F)cc3)N2)cc1 [Example 30-F]", 101),
]

a. Cc1cc(CN(C)C(=O)c2ccc(C[C@@H]3CC[C@H]([C@H](O)c4cccnc4)N3)cc2)cnc1F [Example 39-H]
b. Cc1nnc2ccc(CN(C)C(=O)c3ccc(C[C@@H]4CC[C@H]([C@H](O)c5ccc(Cl)nc5)N4)cc3)cn12 [Example 43-A]
Input: Could you point out whether the larger Human β3-AR Agonist Activity (%) belongs to a or to b ? Refer to your chosen item by its label in the answer.
Output: a
